# target_or_test_system: HLA-B*18:01
# assay_info: IEDB peptide-MHC binding, purified MHC/competitive/radioactivity; filed as Kd, often an IC50 or EC50 that approximates it; bounds were set here for any values at or beyond the usual limits of such assays
# applied_conditions: source organism: Mammarenavirus machupoense
pKd: −log10 of the molar value.
reported_property: pKd

For GDEALTGFL the sequence record lists pKd as 5.24

Data point: QEKAPDVGEL ; pKd = ≤ 4.35

Reported pKd for AENVIVGLV was ≤ 4.11

Value of pKd reported for the sequence KEPQKPLVL is ≤ 4.11

----------
# target_or_test_system: HLA-B*40:01
# assay_info: IEDB peptide-MHC binding, purified MHC/direct/fluorescence; filed as Kd, often an IC50 or EC50 that approximates it; bounds were set here for any values at or beyond the usual limits of such assays
# applied_conditions: source organism: Vibrio cholerae
reported_property: Kd

Summary line: EVNAHIHTM , HLA-B*40:01, reported Kd = ≥ 20 µM

----------
Hi there, I'd appreciate the recorded pKd for every entry that follows.
# target_or_test_system: HLA-A*02:01
# assay_info: IEDB peptide-MHC binding, purified MHC/competitive/radioactivity; filed as Kd, often an IC50 or EC50 that approximates it; bounds were set here for any values at or beyond the usual limits of such assays
# applied_conditions: source organism: Hepatitis C virus (isolate 1)
pKd: −log10 of the molar value.

Per the record, RAAGLQDCT has pKd of ≤ 4.30

The measured pKd associated with AAGLQDCTMLV reads ≤ 4.30

----------
# target_or_test_system: HLA-A*31:01
# assay_info: IEDB peptide-MHC binding, purified MHC/direct/fluorescence; filed as Kd, often an IC50 or EC50 that approximates it; bounds were set here for any values at or beyond the usual limits of such assays
# applied_conditions: source organism: Escherichia coli
pKd: −log10 of the molar value.
reported_property: pKd

The reported pKd of the sequence WCRVGRGTI was ≤ 4.70

----------
# target_or_test_system: HLA-A*31:01
# assay_info: IEDB peptide-MHC binding, purified MHC/direct/fluorescence; filed as Kd, often an IC50 or EC50 that approximates it; bounds were set here for any values at or beyond the usual limits of such assays
# applied_conditions: source organism: Marburg virus - Musoke, Kenya, 1980
reported_property: pKd
API: returns pKd as number; meaning -log10 of concentration in mol/L.

The recorded pKd for KLDFIRNTK is 5.67

----------
# target_or_test_system: HLA-A*26:01
# assay_info: IEDB peptide-MHC binding, purified MHC/competitive/fluorescence; filed as Kd, often an IC50 or EC50 that approximates it; bounds were set here for any values at or beyond the usual limits of such assays
# applied_conditions: source organism: Vaccinia virus WR
reported_property: Kd (nM)
All answers are understood in nM, so give the number only.

Data point: KVFDKSLLY ; Kd = 1750

----------
# target_or_test_system: HLA-A*02:16
# assay_info: IEDB peptide-MHC binding, purified MHC/competitive/fluorescence; filed as Kd, often an IC50 or EC50 that approximates it; bounds were set here for any values at or beyond the usual limits of such assays
# applied_conditions: source organism: Corynebacterium glutamicum ATCC 13032
reported_property: pKd
Note: pKd values are expressed as the negative base-10 logarithm of concentration in M.

Kindly note the recorded pKd for HLPELIWRS , which is 7.01
